TARGET_OF_ASSAY: CRBN/DDB1 (Homo sapiens (Human))
Sequence (Q16531 whole entry partner, species assumed, one chain of several): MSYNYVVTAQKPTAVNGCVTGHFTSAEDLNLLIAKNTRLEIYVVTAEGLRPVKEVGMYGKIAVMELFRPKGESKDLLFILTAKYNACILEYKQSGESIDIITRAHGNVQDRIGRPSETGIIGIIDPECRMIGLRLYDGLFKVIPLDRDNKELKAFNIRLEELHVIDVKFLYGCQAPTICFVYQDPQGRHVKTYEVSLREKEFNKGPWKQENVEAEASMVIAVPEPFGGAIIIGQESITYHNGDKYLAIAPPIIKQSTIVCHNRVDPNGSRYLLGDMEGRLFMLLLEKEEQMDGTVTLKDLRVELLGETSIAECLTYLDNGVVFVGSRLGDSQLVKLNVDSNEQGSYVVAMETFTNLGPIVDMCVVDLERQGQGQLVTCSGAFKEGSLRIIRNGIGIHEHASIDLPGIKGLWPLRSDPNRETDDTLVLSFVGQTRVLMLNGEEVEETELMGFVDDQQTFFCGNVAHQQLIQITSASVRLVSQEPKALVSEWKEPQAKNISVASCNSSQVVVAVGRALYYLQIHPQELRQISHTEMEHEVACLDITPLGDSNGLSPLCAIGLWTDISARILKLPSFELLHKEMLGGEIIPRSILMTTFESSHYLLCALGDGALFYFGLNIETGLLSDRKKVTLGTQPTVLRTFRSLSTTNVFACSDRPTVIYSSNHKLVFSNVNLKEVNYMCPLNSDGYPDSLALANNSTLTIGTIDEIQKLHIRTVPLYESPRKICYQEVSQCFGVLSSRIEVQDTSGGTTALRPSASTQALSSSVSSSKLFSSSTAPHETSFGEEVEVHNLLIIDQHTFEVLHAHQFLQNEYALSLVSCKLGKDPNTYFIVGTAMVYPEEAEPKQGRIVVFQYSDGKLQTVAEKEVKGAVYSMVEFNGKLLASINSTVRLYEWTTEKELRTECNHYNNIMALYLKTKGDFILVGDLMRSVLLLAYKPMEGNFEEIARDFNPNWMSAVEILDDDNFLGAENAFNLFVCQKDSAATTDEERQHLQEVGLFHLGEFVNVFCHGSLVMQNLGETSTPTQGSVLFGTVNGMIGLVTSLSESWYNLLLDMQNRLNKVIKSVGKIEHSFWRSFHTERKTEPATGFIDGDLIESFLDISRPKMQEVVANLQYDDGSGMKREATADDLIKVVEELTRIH
TEST_DESCRIPTION: IC50 measurements for binding to CRBN/DDB1 (HTRF)
TEST_SETTINGS: His tagged CRBN+DDB, Cy5-labeled Thalidomide probe, one hour
OBSERVATION_TYPE: IC50

Recorded IC50 for Cn1ccc2c(CN3CCC3c3ccccc3)cc(-c3ccc4c(c3)CN(C3CCC(=O)NC3=O)C4=O)nc21 (stereo not drawn) , please? 100 to 500 nM

Recorded IC50 for Cn1ccc2c(C3CCCCN3)cc(-c3ccc4c(c3)CN([C@H]3CCC(=O)NC3=O)C4=O)nc21 (stereo partly drawn) , please? 100 to 500 nM

Recorded IC50 for O=C1CCC(N2Cc3cc(-c4cc(CN5CCCC5)c5ccn(C6CCCC6)c5n4)ccc3C2=O)C(=O)N1 (stereo not drawn) , please? 500 to 1000 nM

Recorded IC50 for Cn1cc2c(CN3CCCC3)cc(-c3ccc4c(c3)CN(C3CCC(=O)NC3=O)C4=O)nc2n1 (stereo not drawn) , please? 100 to 500 nM

Recorded IC50 for CN1C2CCC1CN(Cc1cc(-c3ccc4c(c3)CN(C3CCC(=O)NC3=O)C4=O)nc3c1ccn3C)C2 (stereo not drawn) , please? 500 to 1000 nM

Recorded IC50 for Cn1ccc2cccc(CNCc3cc(-c4ccc5c(c4)CN(C4CCC(=O)NC4=O)C5=O)n4cncc4c3)c21 (stereo not drawn) , please? 100 to 500 nM

Recorded IC50 for Cn1ccc2c(CN3CCN4CCCC4C3)cc(-c3ccc4c(c3)CN(C3CCC(=O)NC3=O)C4=O)nc21 (stereo not drawn) , please? 100 to 500 nM

Recorded IC50 for Cn1ccc2c(CN3CCC(n4cccn4)CC3)cc(-c3ccc4c(c3)CN(C3CCC(=O)NC3=O)C4=O)nc21 (stereo not drawn) , please? < 100 nM

Recorded IC50 for CC(C)Cn1ccc2c(CN3CCCC3)cc(-c3ccc4c(c3)CN(C3CCC(=O)NC3=O)C4=O)nc21 (stereo not drawn) , please? 100 to 500 nM

Recorded IC50 for Cn1ccc2nc(-c3ccc4c(c3)CN(C3CCC(=O)NC3=O)C4=O)cc(CN3CCCC3)c21 (stereo not drawn) , please? 1000 to 5000 nM

Recorded IC50 for O=C1CCC(N2Cc3cc(-c4cc(CN5CCCC5)c5cc[nH]c5n4)ccc3C2=O)C(=O)N1 (stereo not drawn) , please? 100 to 500 nM

Recorded IC50 for O=C1CCC(N2Cc3cc(-c4cc(CN5CCCC5)c5[nH]nc(C6CCC6)c5n4)ccc3C2=O)C(=O)N1 (stereo not drawn) , please? 1000 to 5000 nM

Recorded IC50 for O=C1CCC(N2Cc3cc(-c4cc(CN5CCC(CO)CC5)c5ccn(C6COC6)c5n4)ccc3C2=O)C(=O)N1 (stereo not drawn) , please? 100 to 500 nM

Recorded IC50 for O=C1CCC(N2Cc3cc(-c4cc(CN5CCCC5)c5[nH]nc(NC6COC6)c5n4)ccc3C2=O)C(=O)N1 (stereo not drawn) , please? 1000 to 5000 nM

Recorded IC50 for O=C1CCC(N2Cc3cc(-c4ncn5ccc(CN6CCCC6)cc45)ccc3C2=O)C(=O)N1 (stereo not drawn) , please? 1000 to 5000 nM

----------
TARGET_OF_ASSAY: IKZF1 (Homo sapiens (Human), UniProt Q13422+Q96SW2)
Sequence (Q13422 whole entry): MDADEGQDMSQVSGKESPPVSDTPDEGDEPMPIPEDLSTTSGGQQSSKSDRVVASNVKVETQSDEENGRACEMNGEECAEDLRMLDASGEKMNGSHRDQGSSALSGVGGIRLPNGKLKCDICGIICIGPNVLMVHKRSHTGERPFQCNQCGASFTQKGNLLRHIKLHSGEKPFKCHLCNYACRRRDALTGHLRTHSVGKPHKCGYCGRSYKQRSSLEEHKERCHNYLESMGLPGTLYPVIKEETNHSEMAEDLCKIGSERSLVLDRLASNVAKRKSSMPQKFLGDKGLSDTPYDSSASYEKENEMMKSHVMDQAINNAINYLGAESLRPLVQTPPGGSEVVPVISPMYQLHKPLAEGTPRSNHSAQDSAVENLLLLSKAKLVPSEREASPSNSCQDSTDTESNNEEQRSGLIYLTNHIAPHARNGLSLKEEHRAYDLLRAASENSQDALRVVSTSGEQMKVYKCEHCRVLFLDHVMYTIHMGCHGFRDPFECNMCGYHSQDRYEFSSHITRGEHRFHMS
Sequence (Q96SW2 whole entry): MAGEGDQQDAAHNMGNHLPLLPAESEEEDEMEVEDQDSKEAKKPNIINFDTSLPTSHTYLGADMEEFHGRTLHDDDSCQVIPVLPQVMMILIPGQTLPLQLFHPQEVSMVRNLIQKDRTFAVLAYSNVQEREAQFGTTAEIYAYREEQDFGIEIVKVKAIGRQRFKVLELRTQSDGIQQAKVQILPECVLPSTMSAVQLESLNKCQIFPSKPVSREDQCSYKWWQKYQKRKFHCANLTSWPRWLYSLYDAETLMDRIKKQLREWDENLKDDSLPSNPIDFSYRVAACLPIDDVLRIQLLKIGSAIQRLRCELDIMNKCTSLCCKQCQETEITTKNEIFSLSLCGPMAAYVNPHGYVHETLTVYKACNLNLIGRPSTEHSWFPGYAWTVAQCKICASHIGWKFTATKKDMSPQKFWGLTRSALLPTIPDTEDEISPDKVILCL
Sequence (Q16531 2-1140 partner): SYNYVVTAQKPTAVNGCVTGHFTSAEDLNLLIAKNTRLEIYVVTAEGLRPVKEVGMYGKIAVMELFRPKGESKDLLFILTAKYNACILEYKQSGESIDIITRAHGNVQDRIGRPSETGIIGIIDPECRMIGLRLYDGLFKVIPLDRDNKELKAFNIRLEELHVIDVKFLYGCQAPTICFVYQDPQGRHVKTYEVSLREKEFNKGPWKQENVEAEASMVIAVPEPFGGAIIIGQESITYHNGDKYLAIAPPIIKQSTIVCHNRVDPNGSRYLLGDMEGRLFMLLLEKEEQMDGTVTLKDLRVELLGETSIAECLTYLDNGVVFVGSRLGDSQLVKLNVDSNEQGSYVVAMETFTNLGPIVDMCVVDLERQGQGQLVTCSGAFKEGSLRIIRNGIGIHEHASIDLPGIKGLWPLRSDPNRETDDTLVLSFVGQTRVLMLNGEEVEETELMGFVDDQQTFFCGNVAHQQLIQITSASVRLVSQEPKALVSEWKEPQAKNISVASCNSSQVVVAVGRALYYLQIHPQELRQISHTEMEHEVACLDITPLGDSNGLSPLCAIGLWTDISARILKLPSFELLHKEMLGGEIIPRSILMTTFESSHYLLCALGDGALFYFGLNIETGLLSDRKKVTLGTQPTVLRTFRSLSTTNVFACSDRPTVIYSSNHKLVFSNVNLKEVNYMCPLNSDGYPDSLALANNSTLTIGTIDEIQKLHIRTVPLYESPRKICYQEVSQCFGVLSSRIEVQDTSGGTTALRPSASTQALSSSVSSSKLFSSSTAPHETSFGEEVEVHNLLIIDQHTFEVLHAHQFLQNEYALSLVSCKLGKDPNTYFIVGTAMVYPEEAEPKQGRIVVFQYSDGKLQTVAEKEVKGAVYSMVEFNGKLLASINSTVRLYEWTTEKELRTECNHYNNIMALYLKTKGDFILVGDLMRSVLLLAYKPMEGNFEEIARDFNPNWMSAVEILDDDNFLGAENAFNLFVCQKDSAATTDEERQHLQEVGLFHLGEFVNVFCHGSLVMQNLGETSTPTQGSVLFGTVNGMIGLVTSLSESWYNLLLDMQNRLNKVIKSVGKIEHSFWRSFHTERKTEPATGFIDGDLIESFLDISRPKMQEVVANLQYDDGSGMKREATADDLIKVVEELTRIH
TEST_DESCRIPTION: In vitro IKZF1 HiBit Assay (HEK293T Flp-in-HiBiT-IKZF1 stable cell line)
Assay type: cell-based
TEST_SETTINGS: HEK293T Flp-in-HiBiT-IKZF1 stable cell line, 6 hrs incubation; read-out: IKZF1 HiBit DC50
Assignment: determine reported DC50 for the given compounds.

Recorded DC50 for CC(C)Nc1n[nH]c2c(CN3CCC(C(F)(F)F)CC3)cc(-c3ccc4c(c3F)CN(C3CCC(=O)NC3=O)C4=O)nc12 (stereo not shown) , please? > 10 µM

Recorded DC50 for O=C1CCC(N2Cc3cc(-c4cc(CN5CCCC5)c5c(ccn5C5CC5)n4)ccc3C2=O)C(=O)N1 (stereo not shown) , please? 0.01 to 0.1 µM

Recorded DC50 for CCn1ccc2c(CN3CCC3)cc(-c3ccc4c(c3)CN(C3CCC(=O)NC3=O)C4=O)nc21 (stereo not shown) , please? > 10 µM

Recorded DC50 for Cn1ccc2c(CN3CCC4(CCC4)CC3)cc(-c3ccc4c(c3)CN(C3CCC(=O)NC3=O)C4=O)nc21 (stereo not shown) , please? > 10 µM

Recorded DC50 for CCNc1n[nH]c2c(CN3CCCC3)cc(-c3ccc4c(c3)CN(C3CCC(=O)NC3=O)C4=O)nc12 (stereo not shown) , please? 0.01 to 0.1 µM

Recorded DC50 for Cn1ccc2c(CN3CCCC3)cc(-c3ccc4c(c3F)CN(C3CCC(=O)NC3=O)C4=O)nc21 (stereo not shown) , please? > 10 µM

Recorded DC50 for O=C1CCC(N2Cc3cc(-c4cc(CN5CCC(O)CC5)c5cc[nH]c5n4)ccc3C2=O)C(=O)N1 (stereo not shown) , please? 0.1 to 1 µM

----------
TARGET_OF_ASSAY: IKZF2 (Homo sapiens (Human), UniProt Q96SW2+Q9UKS7)
Sequence (Q9UKS7 whole entry): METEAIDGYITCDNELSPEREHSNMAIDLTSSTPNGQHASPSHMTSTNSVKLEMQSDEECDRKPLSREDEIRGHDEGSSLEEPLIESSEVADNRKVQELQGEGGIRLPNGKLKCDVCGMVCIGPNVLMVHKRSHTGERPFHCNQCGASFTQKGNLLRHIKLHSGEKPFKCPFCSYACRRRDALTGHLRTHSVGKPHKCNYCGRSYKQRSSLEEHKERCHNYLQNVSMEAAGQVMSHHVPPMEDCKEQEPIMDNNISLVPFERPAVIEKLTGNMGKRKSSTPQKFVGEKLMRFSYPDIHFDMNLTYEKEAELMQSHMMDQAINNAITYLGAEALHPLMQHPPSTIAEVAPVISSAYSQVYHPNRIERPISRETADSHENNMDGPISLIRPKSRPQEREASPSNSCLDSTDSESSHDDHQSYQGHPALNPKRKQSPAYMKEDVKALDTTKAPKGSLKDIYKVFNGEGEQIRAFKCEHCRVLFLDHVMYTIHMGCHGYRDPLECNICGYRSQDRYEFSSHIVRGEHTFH
Sequence (Q96SW2 whole entry): as the sequence (Q96SW2 whole entry) above
Sequence (Q16531 2-1140 partner): as the sequence (Q16531 2-1140 partner) above
TEST_DESCRIPTION: In vitro IKZF2 HiBit Assay (HEK293T Flp-in-HiBiT cells)
Type: cell-based
TEST_SETTINGS: HEK-293T; HEK293T Flp-in-HiBiT cells, 6 hrs incubation; read-out: IKZF2 HiBit Dmax (%)
Experimental: In Vitro IKZF2 HiBit Assay The HiBiT protein tagging system was applied to modified HEK293T Flp-in-HiBiT cells (polyclone) via a CRISPR/Cas9-mediated insertion of the HiBiT peptide tag (Promega™) to the N-terminus of the IKZF2 gene locus (Neon™ transfection system). Test and reference compounds are diluted from 1 mM at 3 folds for 11 doses. […] The amount of Nano-Glo® HiBiT lytic reagent needed to perform the desired experiments is calculated. […] After briefly centrifuge, the plate is read on Envision. […]
Assignment: determine reported Dmax for the given compounds.

Recorded Dmax for Nc1nn(C2CC2)c2c(CN3CCCC3)cc(-c3ccc4c(c3)CN(C3CCC(=O)NC3=O)C4=O)nc12 (stereo not shown) , please? > 80%

Recorded Dmax for "CC(C)Nc1n[nH]c2c(CN3CCCC3)cc(-c3ccc4c(c3)CN(C35CC(C3)C(=O)NC5=O)C4=O)nc12" , please? 20 to 40%

Recorded Dmax for O=C1CCC(N2Cc3cc(-c4cc(CN5CCCC5)c5[nH]nc(C6CC6)c5n4)ccc3C2=O)C(=O)N1 (stereo not shown) , please? > 80%

Recorded Dmax for O=C1CCC(N2Cc3cc(-c4cc(CN5CCCC5)c5ccn(C6CC6)c5n4)ccc3C2=O)C(=O)N1 (stereo not shown) , please? > 80%

----------
TARGET_OF_ASSAY: IKZF1 (Homo sapiens (Human), UniProt Q13422+Q96SW2)
TEST_DESCRIPTION: In vitro IKZF1 HiBit Assay (HEK293T Flp-in-HiBiT-IKZF1 stable cell line)
Assay type: cell-based
TEST_SETTINGS: HEK293T Flp-in-HiBiT-IKZF1 stable cell line, 6 hrs incubation; read-out: IKZF1 HiBit DC50
Protocol: In Vitro IKZF1 HiBit Assay […] 25 nL of diluted compound is transferred to assay plates (Corning3571) using ECHO550, the final DMSO concentration @ 0.1%. […] The amount of Nano-Glo® HiBiT lytic reagent needed to perform the desired experiments is calculated. […] After briefly centrifuge, the plateis read on Envision. […] The extent of degradation (range of luminescence) from the highest to lowest concentration points was calculated to determine the Dmax. […]
OBSERVATION_TYPE: DC50

Recorded DC50 for O=C1CCC(N2Cc3cc(-c4cc(CN5CCCC5)c5cccc(C6CCC6)c5n4)ccc3C2=O)C(=O)N1 (stereo not shown) , please? > 10 µM

Recorded DC50 for Cc1cc2c(CN3CCCC3)cc(-c3ccc4c(c3)CN(C3CCC(=O)NC3=O)C4=O)nc2n1C1COC1 (stereo not shown) , please? > 10 µM

Recorded DC50 for CC(C)Nc1ccnc2c(CN3CCCC3)cc(-c3ccc4c(c3)CN(C3CCC(=O)NC3=O)C4=O)nc12 (stereo not shown) , please? > 10 µM

Recorded DC50 for O=C1CCC(N2Cc3cc(-c4nc(CN5CCCC5)c5cc[nH]c5n4)ccc3C2=O)C(=O)N1 (stereo not shown) , please? > 10 µM

Recorded DC50 for O=C1CCC(N2Cc3cc(-c4cc(CN5CCCC5)c5ccn(Cc6ccccc6)c5n4)ccc3C2=O)C(=O)N1 (stereo not shown) , please? > 10 µM

Recorded DC50 for O=C1CCC(N2Cc3cc(-c4cc(CN5CCCC5)c5[nH]nc(C6CC6)c5n4)ccc3C2=O)C(=O)N1 (stereo not shown) , please? 0.001 to 0.01 µM

Recorded DC50 for COC1CCN(Cc2cc(-c3ccc4c(c3)CN(C3CCC(=O)NC3=O)C4=O)nc3c2ccn3C2COC2)CC1 (stereo not shown) , please? 0.01 to 0.1 µM

Cited source: patent US20250214991A1
